// SPOT signal as a fraction of Bim BH3's signal on the same receptor and array lookup, one value per entry
Tested system: T1, Mcl-1, Q07820
T1 chain: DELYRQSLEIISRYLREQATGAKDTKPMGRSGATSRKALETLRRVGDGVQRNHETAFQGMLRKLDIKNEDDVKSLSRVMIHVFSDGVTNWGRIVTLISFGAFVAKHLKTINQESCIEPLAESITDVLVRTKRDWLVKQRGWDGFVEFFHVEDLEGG
Test method notes: peptide SPOT array, c-Myc-tagged receptor at 1 uM or 100 nM, anti-c-Myc-Cy3

See these solved cases before continuing.
[
  {
    "Binder": "TTLEMEFAKGLQKIAHNCRQSVMQEP [HMHA1]",
    "Value observed": 0.02
  },
  {
    "Binder": "RMIVDCVSSHLKKTLDGAKTFIIFLC [BBS10]",
    "Value observed": 0.21
  },
  {
    "Binder": "PRPLSILGNLLLLCSQDMLTSLTKLS [CYP2F1]",
    "Value observed": 0.08
  }
]

// below: SPOT signal as a fraction of Bim BH3's signal on the same receptor and array requested for another binder
Incoming: Return value of SPOT signal as a fraction of Bim BH3's signal on the same receptor and array for input DSLLWKLAGLLRESLDVVLSGCSTLS [STK11IP] , no commentary.
Outgoing: 0.05
